// data source = the supplement of paper PMC3334620

- assay_system: Abf1 (UniProt P14164)
- Sequence: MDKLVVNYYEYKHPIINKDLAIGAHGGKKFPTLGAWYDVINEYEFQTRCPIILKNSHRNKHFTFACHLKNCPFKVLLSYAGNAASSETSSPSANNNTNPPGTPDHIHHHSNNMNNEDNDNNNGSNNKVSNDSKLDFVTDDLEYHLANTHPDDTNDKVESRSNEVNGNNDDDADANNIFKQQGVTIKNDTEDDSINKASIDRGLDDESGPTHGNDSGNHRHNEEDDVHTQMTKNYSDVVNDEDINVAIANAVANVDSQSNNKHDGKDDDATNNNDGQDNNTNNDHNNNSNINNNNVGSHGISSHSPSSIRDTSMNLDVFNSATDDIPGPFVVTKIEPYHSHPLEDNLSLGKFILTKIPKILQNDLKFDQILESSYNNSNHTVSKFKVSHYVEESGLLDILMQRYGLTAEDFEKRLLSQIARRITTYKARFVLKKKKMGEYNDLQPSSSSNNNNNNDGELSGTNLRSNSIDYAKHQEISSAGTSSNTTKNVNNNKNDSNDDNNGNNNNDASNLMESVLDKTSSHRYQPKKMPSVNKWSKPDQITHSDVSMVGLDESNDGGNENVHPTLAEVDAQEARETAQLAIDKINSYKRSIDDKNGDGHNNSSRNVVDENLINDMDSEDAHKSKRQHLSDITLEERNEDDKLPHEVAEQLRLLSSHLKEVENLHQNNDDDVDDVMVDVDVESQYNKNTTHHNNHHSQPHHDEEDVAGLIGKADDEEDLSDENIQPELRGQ
- method_notes: PBM E-score (8-mer binding enrichment) (E-score (-0.5 to 0.5)); higher = stronger / more preferred TF binding
- reported_conditions: protein concentration: 200 nM; construct: GST-full length
The full ranking holds about 33,000 sequences; the median of “E-score (-0.5 to 0.5)” is about -0.015, and the highest 2% start at about 0.3. Many of the other results were omitted from the sample, so the highest values are more common in it than they were.
# PBM E-score values compiled below
I'd appreciate a reply containing only the number, no unit.

>>> assay_value("ACCGTTTG")
0.103
>>> assay_value("GCCGTTTA")
0.102

Now consider the entry below.
input: Please indicate PBM E-score recorded for `CTCGTTTA`
output: 0.0984
